- TGT: Acetylcholinesterase (Homo sapiens)
- PROTOCOL_SUMMARY: Acetylcholinesterase (AChE) small molecule antagonists: enzyme-based qHTS assay (AID 1347397); also: % is scaled to controls: 0 for no effect and ±100 for the full control effect; nearly all actives have a fitted effect of over 55% in size
- CONDITION_INFO: series mostly up to 115 µM
- From the text: National Center for Advancing Translational Sciences [NCATS] Division of Preclinical Innovation [DPI] U.S. Environmental Protection Agency [EPA] National Institutes of Environmental Health Sciences [NIEHS] National Toxicology Program [NTP] U.S. Food and Drug Administration [FDA] Acetylcholinesterase (AChE) is the primary cholinesterase in the body that hydrolyzes a key neurotransmitter, acetylcholine. Inhibition of AChE activity can lead to neurotoxicity. […]
Calls of active or inactive are those of the source. Calls follow the shape of the full dose curve.
For each record, write down the corresponding activity change, negative = inhibition.

Some molecules with known activity change, negative = inhibition results, for comparison:
[
  {
    "MOLECULE": "COc1cc(C(C)C)ccc1C",
    "activity change, negative = inhibition": "1.63% [at 23.6 µM] (inactive)"
  },
  {
    "MOLECULE": "Cc1nc2n(c(=O)c1CCN1CCC(c3noc4cc(F)ccc34)CC1)CCC[C@H]2O",
    "activity change, negative = inhibition": "-5.56% [at 23.6 µM] (inactive)"
  },
  {
    "MOLECULE": "CC1CN(c2cc3c(cc2F)c(=O)c(C(=O)O)cn3-c2ccc(F)cc2F)CCN1 (stereo not drawn)",
    "activity change, negative = inhibition": "0.0761% [at 10.5 µM] (inactive)"
  }
]

Hey, quick one: what's activity change, negative = inhibition for each of these?
1. CC(CSC(=O)c1ccccc1)C(=O)N1C[C@@H](Sc2ccccc2)C[C@H]1C(=O)O (stereo partly drawn)
2. CCCCCCCCCCCCCCN(C)C
3. Cc1cc(=O)c2c(O)c3c(O)cc(=O)c4c3c3c(cc(O)c1c23)C(C)(C)C=4O
4. CCCCCCCC/C=C\CCCCCCCC(=O)OCCCC
5. CCCCCCCCCCCCCCCCN(C)C

Given back:
["-0.415% [at 23.6 µM] (inactive)", "0.242% [at 23.6 µM] (inactive)", "2.31% [at 23.6 µM] (inactive)", "0.806% [at 23.6 µM] (inactive)", "-0.395% [at 10.5 µM] (inactive)"]

Hi, could you look up activity change, negative = inhibition for each item in my list?
1. CCCCN1C=CN(C)C1
2. C=CCCCCCCCCCCCCCC
3. NC[C@H]1O[C@H](O[C@H]2[C@H](O)[C@@H](O[C@H]3O[C@H](CO)[C@@H](O)[C@H](N)[C@H]3O)[C@H](N)C[C@@H]2N)[C@H](O)[C@@H](O)[C@@H]1O
4. CCC(C)S (stereo not drawn)
5. CCCC(=O)O[C@]1(C(=O)COC(=O)CC)CC[C@H]2[C@@H]3CCC4=CC(=O)CC[C@]4(C)[C@H]3[C@@H](O)C[C@@]21C
6. CCCCCCCCCCCCS(=O)(=O)Cl

Given back:
["1.48% [at 23.6 µM] (inactive)", "0.291% [at 23.6 µM] (inactive)", "0.413% [at 10.5 µM] (inactive)", "0.922% [at 4.07 µM] (inactive)", "0.139% [at 23.6 µM] (inactive)", "0.136% [at 23.6 µM] (inactive)"]

Return reported activity change, negative = inhibition values for all items listed beneath this line.
1. S=C(SSSSSSC(=S)N1CCCCC1)N1CCCCC1
2. c1ccc(-c2ccc(-c3ccccc3)cc2)cc1
3. N=C(N)N1CCc2ccccc2C1

Given back:
0.13% [at 23.6 µM] (inactive)
0% [at 23.6 µM] (inactive)
0.139% [at 10.5 µM] (inactive)
